Value source: the supplement of paper PMC6555819

System: PPARa:RXRa (NR concentration 270 nM, RXRa partner concentration 90 nM)
Experiment: PBM binding z-score (relative to random genomic background probes); higher = stronger binding; sequences stand for … in GC…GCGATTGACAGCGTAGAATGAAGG
Property Measured: PBM binding z-score
Please respond with just the number, no unit label.

residues=AGTCCAAGTTCAGGACGAGGTAACGTAAAGCACG observed_measurement=1.35
residues=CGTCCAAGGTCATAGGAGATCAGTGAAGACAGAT observed_measurement=5.4
residues=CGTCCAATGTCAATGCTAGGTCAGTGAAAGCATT observed_measurement=1.01
residues=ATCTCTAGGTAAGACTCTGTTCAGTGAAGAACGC observed_measurement=0.0687
residues=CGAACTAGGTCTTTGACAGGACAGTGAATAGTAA observed_measurement=0.769

Note: attention shifts to another entry.
What value of PBM binding z-score on PPARa:RXRa (NR concentration 270 nM, RXRa partner concentration 90 nM) does "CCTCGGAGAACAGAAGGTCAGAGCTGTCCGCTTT" have?
1.85
